experiment: viability gain of MRP-1-high H69AR cells under doxorubicin, pilot screen, MRP-1 activator project, CellTiter-Glo, duplicate (AID 807); details: H69AR viability with doxorubicin, CellTiter-Glo luminescence; at 10 µM; active compounds read high;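 further: compound pretreatment 18-22 h then 72 h combined with doxorubicin; 0% = doxorubicin alone and 100% = vehicle without doxorubicin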
In this section, each of the molecules is paired with its reported viability increase.
# number only, unit % dropped from output

Recorded results for 6 molecules are shown here.
Fc1ccc(Cc2nnc(-c3cccs3)o2)cc1; 0.11
CCCCC(CC)C(=O)NCCc1ccc(S(N)(=O)=O)cc1 (stereo unspecified); -0.52
CCn1nnnc1-c1ccc(OC)c(S(=O)(=O)NCCc2ccccc2)c1; 0.85
CCOC(=O)c1[nH]c(=O)[nH]c1COC(=O)c1cc2ccccc2o1; -1.09
O=C(NCCCN1CCCC1)c1ccc(CS(=O)(=O)c2ccc(Br)cc2)o1; -0.99
O=C(O)c1ccccc1C(=O)c1cccs1; -0.3

Reported viability increase ( "CCOC(=O)c1cc2c(=O)n3ccccc3nc2n(CCOC)c1=NC(=O)C(C)(C)C" ) = -3.78

viability increase for "Cc1ccc2oc(=O)c3cc(C(=O)N4CCN(C(=O)c5ccco5)CC4)sc3c2c1" is -2.75

For record "Cc1ccc(OCCNC(=O)c2ccco2)cc1C" the listed viability increase is -1.46

Entry "Cc1cc(C)c2c(N)c(C(=O)Nc3nccs3)sc2n1" ; viability increase = -5.52

The measured viability increase associated with "Cc1ccc2oc(=O)c3cnn(CC(=O)N4CCCCCC4)c3c2c1" reads -3.69

Cited source for all entries: PubChem BioAssay
